# Target: T1, P6-AA-12HAA-H
# T1 chain: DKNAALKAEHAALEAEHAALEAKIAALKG
# Protocol: two-hybrid library CCmax;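 note: natural log of median RNA to DNA barcode read ratio; higher means stronger binding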
# Setup Conditions: mean of both orientations
Recorded Metric: interaction score

The cases that follow already have their interaction score on record.
- Binder: "DENAALEAKEAALKAKEAALKAEIAALEG [P5-AA-12HAA-E]"
  interaction score: -1.89
- Binder: "DENAALEAKSAALKAKSAALKAEIAALEG [P5-AA-12HAA-S]"
  interaction score: -1.82
- Binder: "DENAALEAKRAALKAKRAALKAEIAALEG [P5-AA-12HAA-R]"
  interaction score: -1.83

[1] DENAALEAKYAALKAKYAALKAEIAALEG [P5-AA-12HAA-Y]
[2] DENAALEAKTAALKAKTAALKAEIAALEG [P5-AA-12HAA-T]
[3] DENAALEAKLAALKAKLAALKAEIAALEG [P5-AA-12HAA-L]
## Input Would you mind ranking these binders by ascending interaction score? As an answer, provide the labels arranged in the order called for.
## Output 1, 2, 3

Provenance of the data: paper PMC10397247
